Experiment notes: Filter permeability test of the lactase solution (slope −a of flux vs permeate)
Type: physicochemical
Experimental setup: additive 0.01 % in GODO-YNL2LS, immediately after preparation
Parameter measured: Slope (−a) Before Shaking
Give the figure by itself; no unit, no explanation.

Study these solved cases before continuing.
Molecule	Slope (−a) Before Shaking
CCCCCCCCCCCCCCCC(=O)[O-].[Na+] [Na Palmitate]	0.0200
CCCCCCCCCC(=O)[O-].[Na+] [Na Decanoate]	0.0228
CCCCC/C=C\C/C=C\CCCCCCCC(=O)O	0.0265
CCCCCCCC/C=C\CCCCCCCC(=O)O	0.0272
CCCCCCCCCCCC(=O)[O-].[Na+] [Na Laurate]	0.0176

I have this molecule here, CCCCCCCCCCCCCCCCCC(=O)[O-].[Na+] [Na Stearate] , and I need its recorded Slope (−a) Before Shaking.
0.0273

I have this molecule here, CCCCCCCCCCCCCC(=O)[O-].[Na+] [Na Myristate] , and I need its recorded Slope (−a) Before Shaking.
0.0147

* * *

Experimental system: lactase (Kluyveromyces lactis, UniProt P00723)
Construct: purchased GODO SHUSEI CO., LTD; GODO-YNL2LS
Sequence (P00723 whole entry): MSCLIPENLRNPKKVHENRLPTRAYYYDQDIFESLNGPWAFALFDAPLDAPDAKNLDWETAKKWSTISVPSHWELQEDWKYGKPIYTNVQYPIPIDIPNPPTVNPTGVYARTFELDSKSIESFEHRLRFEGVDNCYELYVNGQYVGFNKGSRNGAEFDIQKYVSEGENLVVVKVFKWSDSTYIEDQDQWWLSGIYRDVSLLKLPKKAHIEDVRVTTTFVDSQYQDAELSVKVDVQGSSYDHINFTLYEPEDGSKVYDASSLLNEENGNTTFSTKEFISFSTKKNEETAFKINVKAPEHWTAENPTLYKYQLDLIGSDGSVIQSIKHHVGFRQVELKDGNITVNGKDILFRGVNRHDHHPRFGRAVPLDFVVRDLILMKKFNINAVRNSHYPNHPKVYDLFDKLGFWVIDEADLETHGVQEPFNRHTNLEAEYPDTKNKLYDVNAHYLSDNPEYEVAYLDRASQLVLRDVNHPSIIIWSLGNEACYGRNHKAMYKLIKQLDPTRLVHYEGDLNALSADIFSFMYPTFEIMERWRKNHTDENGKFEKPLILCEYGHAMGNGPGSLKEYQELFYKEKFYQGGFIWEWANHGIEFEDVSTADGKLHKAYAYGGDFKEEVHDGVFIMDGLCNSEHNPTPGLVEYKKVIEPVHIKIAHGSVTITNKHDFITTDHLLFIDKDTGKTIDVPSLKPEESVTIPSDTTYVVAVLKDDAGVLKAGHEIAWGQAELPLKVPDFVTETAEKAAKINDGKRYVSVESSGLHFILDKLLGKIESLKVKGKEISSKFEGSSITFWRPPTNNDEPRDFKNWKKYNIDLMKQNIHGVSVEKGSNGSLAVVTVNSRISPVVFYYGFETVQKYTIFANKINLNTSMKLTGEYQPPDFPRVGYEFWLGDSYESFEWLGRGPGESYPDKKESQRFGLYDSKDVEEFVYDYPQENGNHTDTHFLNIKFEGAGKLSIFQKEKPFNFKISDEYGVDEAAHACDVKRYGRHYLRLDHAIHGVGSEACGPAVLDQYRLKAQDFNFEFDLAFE
Experiment notes: Residual activity of lactase activity after storage
Format: physicochemical
Experimental setup: additive 0.01 %; storage at 50° C. for 3 days
Parameter measured: Residual Activity (%)
Report as a plain number; the unit % is understood.

Molecule	Experimental system	Parameter measured	Observed value
CCCCCCCC/C=C\CCCCCCCC(=O)[O-].[Na+] [Na Oleate]	lactase (Kluyveromyces lactis, UniProt P00723)	Residual Activity	71.4

I have this molecule here, CCCCC/C=C\C/C=C\CCCCCCCC(=O)O [Linoleic Acid] , and I need its recorded Residual Activity.
61.1

I have this molecule here, CCCCCCCCCCCCCC(=O)[O-].[Na+] [Na Myristate] , and I need its recorded Residual Activity.
70.7

I have this molecule here, CCCCCCCC/C=C\CCCCCCCC(=O)O [Oleic Acid] , and I need its recorded Residual Activity.
72.0

I have this molecule here, CCCCCCCCCCCCCCCC(=O)[O-].[Na+] [Na Palmitate] , and I need its recorded Residual Activity.
61.5

I have this molecule here, CCCCCCCCCCCCCCCCCC(=O)[O-].[Na+] [Na Stearate] , and I need its recorded Residual Activity.
61.9

* * *

Each record here notes measured Slope (−a) After Shaking.
Experiment notes: Filter permeability test of the lactase solution (slope −a of flux vs permeate)
Format: physicochemical
Experimental setup: additive 0.01 %; shaken at 20° C., 30 mm, 100 spm, 1 hour
Give the figure by itself; no unit, no explanation.

Molecule	Slope (−a) After Shaking
CCCCCCCCCCCC(=O)[O-].[Na+] [Na Laurate]	0.0590
CCCCC/C=C\C/C=C\CCCCCCCC(=O)O	0.0253

Shifting focus to the molecule that follows.
I have this molecule here, CCCCCCCC/C=C\CCCCCCCC(=O)O , and I need its recorded Slope (−a) After Shaking.
0.0407
